B1: Caulobacter ParB omega fusion; a variant is named by its letters at X, in order, B8GW30 (parent)
chain: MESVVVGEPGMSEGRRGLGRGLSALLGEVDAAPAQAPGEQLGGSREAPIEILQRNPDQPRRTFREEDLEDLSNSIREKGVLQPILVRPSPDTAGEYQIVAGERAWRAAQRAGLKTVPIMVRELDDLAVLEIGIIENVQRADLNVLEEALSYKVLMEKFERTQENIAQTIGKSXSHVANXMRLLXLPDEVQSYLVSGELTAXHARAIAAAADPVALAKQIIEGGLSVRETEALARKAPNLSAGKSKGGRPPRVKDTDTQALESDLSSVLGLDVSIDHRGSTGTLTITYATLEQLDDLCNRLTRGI

- Variants of: B1
- Protocol text: one-hybrid fitness for binding parS DNA (scaled: cognate 1, non-cognate 0); higher = stronger binding
- Condition info: with parS DNA site
Over roughly 81,000 sequences, “one-hybrid fitness for binding parS DNA” has its median near -0.17; the highest 2% begin near 0.51. The sample as a whole holds a higher share of the highest values than the screen did.

# Variant key, one-hybrid fitness for binding parS DNA
records = [
    ("KTMW", "≤ 0.2"),
    ("RKNH", "≤ 0.2"),
    ("FRDG", "≤ 0.2"),
    ("RYTN", 0.429),
    ("RWAS", 0.876),
    ("NSFG", "≤ 0.2"),
    ("RIYI", "≤ 0.2"),
    ("NISA", "≤ 0.2"),
    ("RILA", 0.576),
    ("RWFN", "≤ 0.2"),
    ("RISA", 0.608),
    ("PPHC", "≤ 0.2"),
    ("RKDD", "≤ 0.2"),
    ("RYTH", "≤ 0.2"),
    ("QQYT", "≤ 0.2"),
    ("RWAD", "≤ 0.2"),
    ("WFQV", "≤ 0.2"),
    ("NICA", "≤ 0.2"),
    ("YNHR", "≤ 0.2"),
    ("RKDP", "≤ 0.2"),
    ("RWFY", "≤ 0.2"),
    ("RYTS", 0.904),
]
